- Tested on: biotinyl-Trp-oxazolone
- EXPERIMENTAL_PROTOCOL: self-aminoacylation, catalytic enhancement (BWO) (fold over background); higher = more active; k-Seq, kA / k0A0; sequences stand for … in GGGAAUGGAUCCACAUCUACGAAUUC…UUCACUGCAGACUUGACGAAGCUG
Fewer inactive variants are shown than the library holds.
Documented self-aminoacylation across a set of sequences
REPORTED_METRIC: self-aminoacylation

> print(dat)
                                        seq      reported.metric  recorded.measurement
1  CUACUUCAAACAGUCUGUCUG [Fam1A.1 aminoacylation ribozyme variant]  self-aminoacylation                 0.337
2  AUAACCCUGGUCAUCGAGCGA [Fam2.1 aminoacylation ribozyme variant]  self-aminoacylation                  1.52
3  CUUACUCUGGUCAUCGAGUGA [Fam2.1 aminoacylation ribozyme variant]  self-aminoacylation                  5.52
4  AUUUACCUAGGCCAUCGGGUG [Fam2.2 aminoacylation ribozyme variant]  self-aminoacylation                  3.98
5  CUACUUCAAACAAUCGGUAUC [Fam1A.1 aminoacylation ribozyme variant]  self-aminoacylation                 0.994

###

Quick list: self-aminoacylation per entry.
- Test system: biotinyl-Trp-oxazolone
- EXPERIMENTAL_PROTOCOL: self-aminoacylation, catalytic enhancement (BWO) (fold over background); higher = more active; k-Seq, kA / k0A0; sequences stand for … in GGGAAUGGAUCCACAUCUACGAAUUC…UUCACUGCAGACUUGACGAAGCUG
This sample holds only a part of the variants without activity.
REPORTED_METRIC: self-aminoacylation

> print(dat)
                                        seq  recorded.measurement
1  AUUCACCUAGGCCAUCGGGUA [Fam2.2 aminoacylation ribozyme variant]                  3.52
2  CAACUUCAAACAAACGGUCUG [Fam1A.1 aminoacylation ribozyme variant]                  1.04
3  UCACACUUCAACCAAUCGGUC [Fam1B.1 aminoacylation ribozyme variant]                  37.1
4  AUUCACCUAGGUCCUCUGGUG [Fam2.2 aminoacylation ribozyme variant]                  4.56
5  AAGUUUGCUAAUAAUCGCAAA [Fam3.1 aminoacylation ribozyme variant]                  1.02

###

Recorded measurements of self-aminoacylation, one per entry
- System: biotinyl-Leu-oxazolone
- EXPERIMENTAL_PROTOCOL: self-aminoacylation, catalytic enhancement (BLO) (fold over background); higher = more active; k-Seq, kA / k0A0; sequences stand for … in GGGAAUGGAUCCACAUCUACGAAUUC…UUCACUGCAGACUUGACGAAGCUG
Variants at the floor of the assay were thinned out.
REPORTED_METRIC: self-aminoacylation

> print(dat)
                                        seq      reported.metric  recorded.measurement
1  CUACAUCAAACAAUCGGACUG [Fam1A.1 aminoacylation ribozyme variant]  self-aminoacylation                 0.586
2  AUUCACCUAUGUGAUCGGGUG [Fam2.2 aminoacylation ribozyme variant]  self-aminoacylation                  2.74
3  AAGUGUGCGAAUAGUCGCAAG [Fam3.1 aminoacylation ribozyme variant]  self-aminoacylation                  1.76
4  AUUACCCUGAUCAUCGAGUUA [Fam2.1 aminoacylation ribozyme variant]  self-aminoacylation                 0.958
5  GCACACUUCGAGCAAUCGGUC [Fam1B.1 aminoacylation ribozyme variant]  self-aminoacylation                  1.46
6  ACACACUUCAAGCAAUUGGUC [Fam1B.1 aminoacylation ribozyme variant]  self-aminoacylation                 0.945
7  AUUACCCUGGCCAUCGAGCGA [Fam2.1 aminoacylation ribozyme variant]  self-aminoacylation                  1.66
8  CCACAUUUCAAGCUAUCGGUC [Fam1B.1 aminoacylation ribozyme variant]  self-aminoacylation                  1.16

###

- System: biotinyl-Trp-oxazolone
- EXPERIMENTAL_PROTOCOL: self-aminoacylation, catalytic enhancement (BWO) (fold over background); higher = more active; k-Seq, kA / k0A0; sequences stand for … in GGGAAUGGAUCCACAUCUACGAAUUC…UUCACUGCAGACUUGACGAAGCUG
Fewer inactive variants are shown than the library holds.
Quick rule for you: self-aminoacylation at 4 or higher means Criterion met, lower means Criterion not met.

> print(dat)
                                         seq        class.label
 1  CCACACUCCAAGCAAUAGGUC [Fam1B.1 aminoacylation ribozyme variant]  Criterion not met
 2  AAGUUUGCUCAUAGGCGCAAG [Fam3.1 aminoacylation ribozyme variant]  Criterion not met
 3  AUUCACCUACGUCAUAGGGUG [Fam2.2 aminoacylation ribozyme variant]  Criterion not met
 4  AUUGUCCUAGGUCAUCGGGUG [Fam2.2 aminoacylation ribozyme variant]      Criterion met
 5  AUUCACCUAGAUCAUCGGUUG [Fam2.2 aminoacylation ribozyme variant]  Criterion not met
 6  CCACACUUCAAGAAACCGGUC [Fam1B.1 aminoacylation ribozyme variant]  Criterion not met
 7  AAGUUUCCUAAAAGUCGCAAG [Fam3.1 aminoacylation ribozyme variant]  Criterion not met
 8  AUUAACCUAGGUCAACGGGUG [Fam2.2 aminoacylation ribozyme variant]  Criterion not met
 9  CUCCUUCAAACAAUCAGUCUG [Fam1A.1 aminoacylation ribozyme variant]      Criterion met
10  AUUCACCUAGGCCAUUGGGUG [Fam2.2 aminoacylation ribozyme variant]  Criterion not met
11  CCAUUUCAAACAAUCGGUCUG [Fam1A.1 aminoacylation ribozyme variant]      Criterion met
12  AUUCCCCUAGUCAUCGAGUGA [Fam2.1 aminoacylation ribozyme variant]      Criterion met
13  CCACACUGCAAGCGAUCGGUC [Fam1B.1 aminoacylation ribozyme variant]  Criterion not met
14  AUUACCCUGGCCAUCGAUUGA [Fam2.1 aminoacylation ribozyme variant]  Criterion not met
15  CUGCUUCAACCAAUCGGUCUG [Fam1A.1 aminoacylation ribozyme variant]      Criterion met
16  AUUCACCUAUGUCAUCGGCUG [Fam2.2 aminoacylation ribozyme variant]  Criterion not met
17  AAGCUUGCUAAUAGUCGCAGG [Fam3.1 aminoacylation ribozyme variant]  Criterion not met
18  UUUACCCUGGUCUUCGAGUGA [Fam2.1 aminoacylation ribozyme variant]      Criterion met

###

- System: biotinyl-Met-oxazolone
- EXPERIMENTAL_PROTOCOL: self-aminoacylation, catalytic enhancement (BMO) (fold over background); higher = more active; k-Seq, kA / k0A0; sequences stand for … in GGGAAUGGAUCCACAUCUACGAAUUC…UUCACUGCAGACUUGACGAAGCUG
Fewer inactive variants are shown than the library holds.
# self-aminoacylation >= 1 gives Met, anything below gives Not met

> print(dat)
                                         seq          assayed.target  class.label
 1  AUUACCCUGGUCUACGAGUGA [Fam2.1 aminoacylation ribozyme variant]  biotinyl-Met-oxazolone          Met
 2  AAGUUUGAUAAUAGUCGUAAG [Fam3.1 aminoacylation ribozyme variant]  biotinyl-Met-oxazolone      Not met
 3  CUCCACCUAGGUCAUCGGGUG [Fam2.2 aminoacylation ribozyme variant]  biotinyl-Met-oxazolone          Met
 4  ACCACCCUGGUCAUCGAGUGA [Fam2.1 aminoacylation ribozyme variant]  biotinyl-Met-oxazolone          Met
 5  CUACUUUAAACAAUCGGUGUG [Fam1A.1 aminoacylation ribozyme variant]  biotinyl-Met-oxazolone      Not met
 6  AUUCACCUAGGUAAUAGGGUG [Fam2.2 aminoacylation ribozyme variant]  biotinyl-Met-oxazolone          Met
 7  CGACACUUCAAACAAUCGGUC [Fam1B.1 aminoacylation ribozyme variant]  biotinyl-Met-oxazolone          Met
 8  CCACACUUCAACCAAUCGUUC [Fam1B.1 aminoacylation ribozyme variant]  biotinyl-Met-oxazolone      Not met
 9  AUUCCCCUAGUCAUCGAGUGA [Fam2.1 aminoacylation ribozyme variant]  biotinyl-Met-oxazolone          Met
10  CUACUUCAAACAACCGGUAUG [Fam1A.1 aminoacylation ribozyme variant]  biotinyl-Met-oxazolone      Not met
11  CUUUUUCAAACAAUCGGUCUG [Fam1A.1 aminoacylation ribozyme variant]  biotinyl-Met-oxazolone      Not met
12  AAGUUUGCAAAGAGUCGCAAG [Fam3.1 aminoacylation ribozyme variant]  biotinyl-Met-oxazolone      Not met
13  AUUAUCCUGGUCAUCGAGUAA [Fam2.1 aminoacylation ribozyme variant]  biotinyl-Met-oxazolone          Met
14  AUCCACCUAGGUCAUGGGGUG [Fam2.2 aminoacylation ribozyme variant]  biotinyl-Met-oxazolone          Met
15  CUAAUUCAAACAGUCGGUCUG [Fam1A.1 aminoacylation ribozyme variant]  biotinyl-Met-oxazolone      Not met
16  AUUCACCUAGUUCAUCGUGUG [Fam2.2 aminoacylation ribozyme variant]  biotinyl-Met-oxazolone          Met
17  AUUCCCCUAGGUCAUCGUGUG [Fam2.2 aminoacylation ribozyme variant]  biotinyl-Met-oxazolone          Met
18  AUUACCCUAGUCAUCGAGCGA [Fam2.1 aminoacylation ribozyme variant]  biotinyl-Met-oxazolone          Met
19  GUCCACCUAGGUCAUCGGGUG [Fam2.2 aminoacylation ribozyme variant]  biotinyl-Met-oxazolone          Met
20  CCACCCUUCAAGCAAGCGGUC [Fam1B.1 aminoacylation ribozyme variant]  biotinyl-Met-oxazolone          Met
21  AUUCAACUAGUUCAUCGGGUG [Fam2.2 aminoacylation ribozyme variant]  biotinyl-Met-oxazolone          Met
22  AUUGACCUAGGGCAUCGGGUG [Fam2.2 aminoacylation ribozyme variant]  biotinyl-Met-oxazolone          Met
23  AAUCACCAAGGUCAUCGGGUG [Fam2.2 aminoacylation ribozyme variant]  biotinyl-Met-oxazolone          Met
24  AUUCCCCUGGUCAUCGAGUGA [Fam2.1 aminoacylation ribozyme variant]  biotinyl-Met-oxazolone          Met
25  AAGUUUGCUAUUAGACGCAAG [Fam3.1 aminoacylation ribozyme variant]  biotinyl-Met-oxazolone      Not met
26  AUUCACCUAGGUCACCGUGUG [Fam2.2 aminoacylation ribozyme variant]  biotinyl-Met-oxazolone          Met
27  AAGUGUGCUAAGAGUCGCAAG [Fam3.1 aminoacylation ribozyme variant]  biotinyl-Met-oxazolone          Met
28  CUACUUCAAAAAAUCGGCCUG [Fam1A.1 aminoacylation ribozyme variant]  biotinyl-Met-oxazolone          Met
29  ACUCACCGAGGUCAUCGGGUG [Fam2.2 aminoacylation ribozyme variant]  biotinyl-Met-oxazolone          Met
30  CUACUCGAAACAAUCGGUCUG [Fam1A.1 aminoacylation ribozyme variant]  biotinyl-Met-oxazolone      Not met
31  ACUACCCUGGUCAUCGCGUGA [Fam2.1 aminoacylation ribozyme variant]  biotinyl-Met-oxazolone          Met
32  GAUACCCUGGUCAUCGAGUGA [Fam2.1 aminoacylation ribozyme variant]  biotinyl-Met-oxazolone          Met
33  CUAAUUCAACCAAUCGGUCUG [Fam1A.1 aminoacylation ribozyme variant]  biotinyl-Met-oxazolone      Not met
34  AUUCCCCUAGGUUAUCGGGUG [Fam2.2 aminoacylation ribozyme variant]  biotinyl-Met-oxazolone          Met
35  CUACUUCGAACAAUAGGUCUG [Fam1A.1 aminoacylation ribozyme variant]  biotinyl-Met-oxazolone      Not met

Value source: the supplement of paper PMC9233669
